# System: MS2 coat protein
# test: apparent KD of MS2 coat protein; designed switch direction (-1 OFF switch, 1 ON switch): 1; higher = weaker reporter binding
# conditionLabel: Eterna round: R95; input ligand: FMN 200 uM
Values of apparent KD of MS2 coat protein greater than or equal to 20 nM map to T; values below map to F.

# sequenceEntry, classLabel
data = [
    ("UGGUUGGAGAGAGAGGAUAUCCAAUUUUCAACAUGAGGAUCACCCAUGUAGAACGUAGGUAAUUGGGAGAAGGCUCAAGAGACAU [salish99_ss2_r3_100] (puzzle: Same State 2)", "T"),
    ("GGUUUAGUCGAGUGCCAUUCCACUCGAAAACAUGAGGAUCACCCAUGUUUGGGACAAGCUUUGCUCCUCGUCUUUCC [Inertequ] (puzzle: Sensor for hsa-mir-208a)", "T"),
    ("CCUUAACAUGAGGAUCACCCAUGUAACAAGGAGUAAGGAUAUACAUGGGAAAACAGUCAUGUAGAAGGUACAAAAG [Rexereon] (puzzle: Same State 1)", "F"),
    ("GAGUGACAUGAGGAUCACCCAUGUAGAAUAGAACAAGGAUAUGUGGAAGGCGGAGGAGAGACAGAAGGUGUUGAGG [JR_SS1_Sub058] (puzzle: Same State 1)", "T"),
    ("CACAAUCUAUCUGAGGAUAUCAUGAAAAAAACAUGAGGAUCACCCAUGUGCAGGAAAACUGCAUAUGAGAAGGCAGAUAGAUUGG [salish99_SS2_r3_014] (puzzle: Same State 2)", "T"),
    ("AUAAGUUUGAUGCUCGUCUCUCCGUACAGACAUGAGGAUCACCCAUGUAGUCAGGAAGUAGCCUGGCCAGUAUGGCC [Berave] (puzzle: Sensor for hsa-mir-208a)", "T"),
    ("GUAUAACAUGAGGAUCACCCAUGUCAACAAAGUCGAGGAUAUGGGCAGAGAGGAGAAGAACCAGAAGGCGAAUAUG [Mat - Same State 1 - Mod of UCT - D37] (puzzle: Same State 1)", "T"),
    ("GCAGCCGGCACUGAGGAUAUUCAUAUUAAAACAUGAGGAUCACCCAUGUAGGCCAGAAGGCCUUGGGAGAAGGCAGGUCGGCUGG [Mat - Same State 2 - Mod of UCT - D63] (puzzle: Same State 2)", "T"),
    ("CGUCCGGCCUGUGCUGGCCGGUUGCAUGUACAUGAGGAUCACCCAUGUUCAUGUGCAGGCUUUUUGCUCGUCUUGUG [salish99_mir208a_013] (puzzle: Sensor for hsa-mir-208a)", "F"),
    ("GUGGUGUAGAUACAGGAUAUGUUGCUCGUAACAUGAGGAUCACCCAUGUAUCUAUGAGAAUAAAUGCAGAAGGGUGCACACCACU [Mat - Same State 2 - Mod of UCT - D74] (puzzle: Same State 2)", "T"),
]

Data provenance is the supplement of paper PMC9170038.
